- target: peroxidase-anti-peroxidase (PAP) immune complexes (UniProt P00433)
- Sequence (P00433 31-338, one chain of several): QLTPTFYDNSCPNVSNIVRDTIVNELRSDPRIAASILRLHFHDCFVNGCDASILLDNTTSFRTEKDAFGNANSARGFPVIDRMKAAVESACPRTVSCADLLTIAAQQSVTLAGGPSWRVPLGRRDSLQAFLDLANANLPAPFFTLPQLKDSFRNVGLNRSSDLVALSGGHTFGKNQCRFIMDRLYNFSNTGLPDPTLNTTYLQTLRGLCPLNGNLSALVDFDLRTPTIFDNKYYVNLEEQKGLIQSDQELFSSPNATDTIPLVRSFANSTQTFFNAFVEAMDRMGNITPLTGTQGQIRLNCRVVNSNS
- test_details: reverse ELISA: PAP pre-incubated with peptide; competitor: immobilised FcγIIb
Positions of bridges follow the written chain, without caps; N, C: chain ends. No end group written: not given here.
recorded_metric: OD 450 nm (OD)

a = DCARHLGELVWCT (disulfide 2-12 (inferred)) [… (SEQ ID NO:4)]
b = PCARHLGELVWCT (disulfide 2-12 (inferred)) [… (SEQ ID NO:41)]
Asked: Please indicate which entry, a or b , has the lower recorded OD 450 nm value. Your answer should be the label attached to the chosen record.
Given back: b

a = DCAAHLGELAACT (cyclized by a disulfide bond between the two cysteine residues) [… (SEQ ID NO:40)]
b = RCARHLGELVWCT (disulfide 2-12 (inferred)) [… (SEQ ID NO:5)]
Asked: Kindly identify which of a and b has the larger recorded OD 450 nm value. Bench note: the answer is the label of the chosen record.
Given back: b
